Hey, just so you know, these numbers are from ChEMBL document CHEMBL3044964.

- Tested on: Escherichia coli
- protocol text: Toxicity in wild type Escherichia coli AB1157 assessed as growth inhibition at 1000 ug after 24 hr by agar well diffusion method
- Format: organism-based
- test parameters: in vivo
diameter of the inhibition zone (DIZ) values for the compounds below.
recorded metric: diameter of the inhibition zone (DIZ) (cm)

compound_string=O=c1oc2ccccc2cc1-c1cn2nc(-c3c([O-])[o+]nn3-c3ccccc3)sc2n1 test_system="Escherichia coli" recorded_metric="diameter of the inhibition zone (DIZ)" unit_abbrev=cm obs_value=0
compound_string=Cc1ccc(-n2n[o+]c([O-])c2-c2nn3cc(-c4cc5cc(Br)ccc5oc4=O)nc3s2)cc1 test_system="Escherichia coli" recorded_metric="diameter of the inhibition zone (DIZ)" unit_abbrev=cm obs_value=0
compound_string=COc1ccc(-n2n[o+]c([O-])c2-c2nn3cc(-c4cc5cc(Br)ccc5oc4=O)nc3s2)cc1 test_system="Escherichia coli" recorded_metric="diameter of the inhibition zone (DIZ)" unit_abbrev=cm obs_value=0.5
compound_string=O=c1oc2ccc(Br)cc2cc1-c1cn2nc(-c3c([O-])[o+]nn3-c3ccccc3)sc2n1 test_system="Escherichia coli" recorded_metric="diameter of the inhibition zone (DIZ)" unit_abbrev=cm obs_value=0
compound_string=O=c1oc2ccccc2cc1-c1cn2nc(-c3c([O-])[o+]nn3-c3ccc(Cl)cc3)sc2n1 test_system="Escherichia coli" recorded_metric="diameter of the inhibition zone (DIZ)" unit_abbrev=cm obs_value=0

====

- Tested on: Escherichia coli
- protocol text: Toxicity in wild type Escherichia coli AB1157 assessed as growth inhibition at 2000 ug after 24 hr by agar well diffusion method
- Type: organism-based
- test parameters: in vivo
diameter of the inhibition zone (DIZ) values for the molecules below.
recorded metric: diameter of the inhibition zone (DIZ) (cm)

compound_string=Cc1ccc(-n2n[o+]c([O-])c2-c2nn3cc(-c4cc5ccccc5oc4=O)nc3s2)cc1 test_system="Escherichia coli" obs_value=0
compound_string=Cc1ccc(-n2n[o+]c([O-])c2-c2nn3cc(-c4cc5cc(Br)ccc5oc4=O)nc3s2)cc1 test_system="Escherichia coli" obs_value=0
compound_string=COc1ccc(-n2n[o+]c([O-])c2-c2nn3cc(-c4cc5cc(Cl)ccc5oc4=O)nc3s2)cc1 test_system="Escherichia coli" obs_value=0.8

====

- System: Escherichia coli
- protocol text: Toxicity in wild type Escherichia coli AB1157 assessed as growth inhibition at 1000 ug after 24 hr by agar well diffusion method
- Assay type: organism-based
- test parameters: in vivo
recorded metric: diameter of the inhibition zone (DIZ) (cm)

compound_string=O=c1oc2ccc(Cl)cc2cc1-c1cn2nc(-c3c([O-])[o+]nn3-c3ccc(Cl)cc3)sc2n1 obs_value=0
compound_string=Cc1ccc(-n2n[o+]c([O-])c2-c2nn3cc(-c4cc5cc(Cl)ccc5oc4=O)nc3s2)cc1 obs_value=0
compound_string=Cc1ccc(-n2n[o+]c([O-])c2-c2nn3cc(-c4cc5ccccc5oc4=O)nc3s2)cc1 obs_value=0
compound_string=O=c1oc2ccc(Br)cc2cc1-c1cn2nc(-c3c([O-])[o+]nn3-c3ccc(Cl)cc3)sc2n1 obs_value=0
compound_string=O=c1oc2ccc(Cl)cc2cc1-c1cn2nc(-c3c([O-])[o+]nn3-c3ccccc3)sc2n1 obs_value=0
compound_string=COc1ccc(-n2n[o+]c([O-])c2-c2nn3cc(-c4cc5ccccc5oc4=O)nc3s2)cc1 obs_value=0.5
compound_string=COc1ccc(-n2n[o+]c([O-])c2-c2nn3cc(-c4cc5cc(Cl)ccc5oc4=O)nc3s2)cc1 obs_value=0.5
